For each entry below, report its IC50 value.
- target_system: ULK1 kinase (Homo sapiens, UniProt O75385, E37A/K38A)
- Construct: (residues 1-283; ID NO: 1)
- Sequence (O75385 1-283 E37A/K38A): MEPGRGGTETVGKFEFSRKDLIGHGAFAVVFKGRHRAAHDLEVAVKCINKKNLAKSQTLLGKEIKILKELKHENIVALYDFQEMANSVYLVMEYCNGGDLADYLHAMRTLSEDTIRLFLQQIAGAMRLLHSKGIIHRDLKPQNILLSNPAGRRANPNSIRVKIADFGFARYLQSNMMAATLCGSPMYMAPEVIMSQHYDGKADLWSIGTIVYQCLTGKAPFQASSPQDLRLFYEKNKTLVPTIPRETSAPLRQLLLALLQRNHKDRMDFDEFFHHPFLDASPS
- protocol_summary: Biochemical assay for ULK1 (coupled pyruvate kinase/lactate dehydrogenase assay)
- condition_parameters: 1 mM ATP, 0.1 nM ULK1; read-out: ULK1 (inhibition of biochemical activity), IC50

In: Fill in the recorded IC50 for this compound, with ULK1 kinase (Homo sapiens, UniProt O75385, E37A/K38A) as test system: `CC/C(Nc1cnn(C2CCN(C(C)C)CC2)c1)=C1/C(=O)Nc2ccc(C(=O)NCC(C)(C)O)cc21`
Out: 10 to 100 nM

In: And what about the compound `CC/C(Nc1cnn(C2CCN(C(C)C)CC2)c1)=C1/C(=O)Nc2ccc(C(=O)NCCC(F)(F)F)cc21` ?
Out: ≤ 10 nM

In: Also, CC/C(Nc1ccc(N2CC3CC2CN3C)cc1)=C1/C(=O)Nc2ccc(C(=O)NCC(F)(F)F)cc21 (stereo not shown) please.
Out: ≤ 10 nM

In: Input `CC/C(Nc1nnc(C)o1)=C1/C(=O)Nc2ccc(C(=O)NCC(C)(C)F)cc21`
Out: 100 to 500 nM

Every entry's value here was drawn from patent US20240150368A1.
